Source listed as BigSolDB 2.1.

Each entry below carries its reported solubility (mole fraction).
CONDITION_CONTEXT: in n-propanol, 313.15 K
Give the figure only, with no unit attached.

COc1cccc(-c2nn(-c3ccccc3)cc2/C=C/C(=O)c2nc3ccccc3[nH]2)c1: 0.000187
COc1ccc(-c2nn(-c3ccccc3)cc2/C=C/C(=O)c2nc3ccccc3[nH]2)cc1: 0.000565
O=C(/C=C/c1cn(-c2ccccc2)nc1-c1ccccc1Cl)c1nc2ccccc2[nH]1: 0.000189
O=C(/C=C/c1cn(-c2ccccc2)nc1-c1ccccc1)c1nc2ccccc2[nH]1: 0.000189
O=C(/C=C/c1cn(-c2ccccc2)nc1-c1cccc([N+](=O)[O-])c1)c1nc2ccccc2[nH]1: 0.000175

Report measured solubility (mole fraction); entry is O=C(/C=C/c1cn(-c2ccccc2)nc1-c1ccc(Cl)cc1)c1nc2ccccc2[nH]1
0.000132

Report measured solubility (mole fraction); entry is COc1ccc(-c2nn(-c3ccccc3)cc2/C=C/C(=O)c2nc3ccccc3[nH]2)cc1OC
0.000167

---

CONDITION_CONTEXT: in ethanol, 298.15 K
Each entry below carries its reported solubility (mole fraction).
Give the figure only, with no unit attached.

Worked examples follow.
O=C(/C=C/c1cn(-c2ccccc2)nc1-c1ccc(Cl)cc1)c1nc2ccccc2[nH]1: 0.000102
COc1ccc(-c2nn(-c3ccccc3)cc2/C=C/C(=O)c2nc3ccccc3[nH]2)cc1OC: 3.91e-05
O=C(/C=C/c1cn(-c2ccccc2)nc1-c1ccccc1)c1nc2ccccc2[nH]1: 8.48e-05
COc1ccc(-c2nn(-c3ccccc3)cc2/C=C/C(=O)c2nc3ccccc3[nH]2)cc1: 0.000352
COc1cccc(-c2nn(-c3ccccc3)cc2/C=C/C(=O)c2nc3ccccc3[nH]2)c1: 7.24e-05
O=C(/C=C/c1cn(-c2ccccc2)nc1-c1cccc([N+](=O)[O-])c1)c1nc2ccccc2[nH]1: 5.53e-05

Report measured solubility (mole fraction); entry is O=C(/C=C/c1cn(-c2ccccc2)nc1-c1ccccc1Cl)c1nc2ccccc2[nH]1
0.000105

---

CONDITION_CONTEXT: in n-propanol, 328.15 K
Each entry below carries its reported solubility (mole fraction).
Give the figure only, with no unit attached.

COc1ccc(-c2nn(-c3ccccc3)cc2/C=C/C(=O)c2nc3ccccc3[nH]2)cc1: 0.000628

Report measured solubility (mole fraction); entry is O=C(/C=C/c1cn(-c2ccccc2)nc1-c1ccc(Cl)cc1)c1nc2ccccc2[nH]1
0.000167

Report measured solubility (mole fraction); entry is COc1ccc(-c2nn(-c3ccccc3)cc2/C=C/C(=O)c2nc3ccccc3[nH]2)cc1OC
0.00022

---

CONDITION_CONTEXT: in n-pentanol, 323.15 K
Each entry below carries its reported solubility (mole fraction).
Give the figure only, with no unit attached.

Worked examples follow.
COc1ccc(-c2nn(-c3ccccc3)cc2/C=C/C(=O)c2nc3ccccc3[nH]2)cc1: 0.00185
O=C(/C=C/c1cn(-c2ccccc2)nc1-c1ccccc1)c1nc2ccccc2[nH]1: 0.000592

Report measured solubility (mole fraction); entry is O=C(/C=C/c1cn(-c2ccccc2)nc1-c1cccc([N+](=O)[O-])c1)c1nc2ccccc2[nH]1
0.000513

Report measured solubility (mole fraction); entry is COc1cccc(-c2nn(-c3ccccc3)cc2/C=C/C(=O)c2nc3ccccc3[nH]2)c1
0.000457

Report measured solubility (mole fraction); entry is COc1ccc(-c2nn(-c3ccccc3)cc2/C=C/C(=O)c2nc3ccccc3[nH]2)cc1OC
0.000412

Report measured solubility (mole fraction); entry is O=C(/C=C/c1cn(-c2ccccc2)nc1-c1ccc(Cl)cc1)c1nc2ccccc2[nH]1
0.000423

Report measured solubility (mole fraction); entry is O=C(/C=C/c1cn(-c2ccccc2)nc1-c1ccccc1Cl)c1nc2ccccc2[nH]1
0.00069

---

CONDITION_CONTEXT: in ethyl acetate, 323.15 K
Each entry below carries its reported solubility (mole fraction).
Give the figure only, with no unit attached.

COc1ccc(-c2nn(-c3ccccc3)cc2/C=C/C(=O)c2nc3ccccc3[nH]2)cc1: 0.00091
COc1cccc(-c2nn(-c3ccccc3)cc2/C=C/C(=O)c2nc3ccccc3[nH]2)c1: 0.000336
O=C(/C=C/c1cn(-c2ccccc2)nc1-c1ccccc1)c1nc2ccccc2[nH]1: 0.000403
O=C(/C=C/c1cn(-c2ccccc2)nc1-c1ccccc1Cl)c1nc2ccccc2[nH]1: 0.00145
COc1ccc(-c2nn(-c3ccccc3)cc2/C=C/C(=O)c2nc3ccccc3[nH]2)cc1OC: 0.00059
O=C(/C=C/c1cn(-c2ccccc2)nc1-c1ccc(Cl)cc1)c1nc2ccccc2[nH]1: 0.000482

Report measured solubility (mole fraction); entry is O=C(/C=C/c1cn(-c2ccccc2)nc1-c1cccc([N+](=O)[O-])c1)c1nc2ccccc2[nH]1
0.00244

---

CONDITION_CONTEXT: in n-butanol, 318.15 K
Each entry below carries its reported solubility (mole fraction).
Give the figure only, with no unit attached.

O=C(/C=C/c1cn(-c2ccccc2)nc1-c1cccc([N+](=O)[O-])c1)c1nc2ccccc2[nH]1: 0.000359
O=C(/C=C/c1cn(-c2ccccc2)nc1-c1ccccc1Cl)c1nc2ccccc2[nH]1: 0.000445
COc1ccc(-c2nn(-c3ccccc3)cc2/C=C/C(=O)c2nc3ccccc3[nH]2)cc1: 0.00145
O=C(/C=C/c1cn(-c2ccccc2)nc1-c1ccccc1)c1nc2ccccc2[nH]1: 0.000374
COc1cccc(-c2nn(-c3ccccc3)cc2/C=C/C(=O)c2nc3ccccc3[nH]2)c1: 0.000258

Report measured solubility (mole fraction); entry is O=C(/C=C/c1cn(-c2ccccc2)nc1-c1ccc(Cl)cc1)c1nc2ccccc2[nH]1
0.00024

Report measured solubility (mole fraction); entry is COc1ccc(-c2nn(-c3ccccc3)cc2/C=C/C(=O)c2nc3ccccc3[nH]2)cc1OC
0.000321

---

Each entry below carries its reported solubility (mole fraction).
CONDITION_CONTEXT: in n-pentanol, 298.15 K
Give the figure only, with no unit attached.

COc1cccc(-c2nn(-c3ccccc3)cc2/C=C/C(=O)c2nc3ccccc3[nH]2)c1: 0.000227

Report measured solubility (mole fraction); entry is COc1ccc(-c2nn(-c3ccccc3)cc2/C=C/C(=O)c2nc3ccccc3[nH]2)cc1OC
0.00031

Report measured solubility (mole fraction); entry is O=C(/C=C/c1cn(-c2ccccc2)nc1-c1ccccc1Cl)c1nc2ccccc2[nH]1
0.000354

Report measured solubility (mole fraction); entry is O=C(/C=C/c1cn(-c2ccccc2)nc1-c1cccc([N+](=O)[O-])c1)c1nc2ccccc2[nH]1
0.000281

Report measured solubility (mole fraction); entry is O=C(/C=C/c1cn(-c2ccccc2)nc1-c1ccccc1)c1nc2ccccc2[nH]1
0.000257

Report measured solubility (mole fraction); entry is O=C(/C=C/c1cn(-c2ccccc2)nc1-c1ccc(Cl)cc1)c1nc2ccccc2[nH]1
0.000253

Report measured solubility (mole fraction); entry is COc1ccc(-c2nn(-c3ccccc3)cc2/C=C/C(=O)c2nc3ccccc3[nH]2)cc1
0.00156

---

CONDITION_CONTEXT: in n-butanol, 323.15 K
READOUT_LABEL: solubility (mole fraction)
Give the figure only, with no unit attached.

Worked examples follow.
O=C(/C=C/c1cn(-c2ccccc2)nc1-c1ccccc1)c1nc2ccccc2[nH]1: 0.000425
O=C(/C=C/c1cn(-c2ccccc2)nc1-c1ccc(Cl)cc1)c1nc2ccccc2[nH]1: 0.000258
COc1ccc(-c2nn(-c3ccccc3)cc2/C=C/C(=O)c2nc3ccccc3[nH]2)cc1OC: 0.00035
O=C(/C=C/c1cn(-c2ccccc2)nc1-c1cccc([N+](=O)[O-])c1)c1nc2ccccc2[nH]1: 0.000402
COc1ccc(-c2nn(-c3ccccc3)cc2/C=C/C(=O)c2nc3ccccc3[nH]2)cc1: 0.00149
COc1cccc(-c2nn(-c3ccccc3)cc2/C=C/C(=O)c2nc3ccccc3[nH]2)c1: 0.000285

We next turn to a different compound, shown below.
Report measured solubility (mole fraction); entry is O=C(/C=C/c1cn(-c2ccccc2)nc1-c1ccccc1Cl)c1nc2ccccc2[nH]1
0.0005

---

Each entry below carries its reported solubility (mole fraction).
CONDITION_CONTEXT: in acetonitrile, 303.15 K
Give the figure only, with no unit attached.

O=C(/C=C/c1cn(-c2ccccc2)nc1-c1ccc(Cl)cc1)c1nc2ccccc2[nH]1: 0.000135
O=C(/C=C/c1cn(-c2ccccc2)nc1-c1ccccc1Cl)c1nc2ccccc2[nH]1: 6e-05
COc1ccc(-c2nn(-c3ccccc3)cc2/C=C/C(=O)c2nc3ccccc3[nH]2)cc1OC: 0.000135
COc1cccc(-c2nn(-c3ccccc3)cc2/C=C/C(=O)c2nc3ccccc3[nH]2)c1: 4.16e-05
O=C(/C=C/c1cn(-c2ccccc2)nc1-c1ccccc1)c1nc2ccccc2[nH]1: 6.5e-05
O=C(/C=C/c1cn(-c2ccccc2)nc1-c1cccc([N+](=O)[O-])c1)c1nc2ccccc2[nH]1: 0.000123

We next turn to a different compound, shown below.
Report measured solubility (mole fraction); entry is COc1ccc(-c2nn(-c3ccccc3)cc2/C=C/C(=O)c2nc3ccccc3[nH]2)cc1
0.0002
